# TESTED_SYSTEM: UniProt:Q9H228
# Sequence (Q9H228 whole entry): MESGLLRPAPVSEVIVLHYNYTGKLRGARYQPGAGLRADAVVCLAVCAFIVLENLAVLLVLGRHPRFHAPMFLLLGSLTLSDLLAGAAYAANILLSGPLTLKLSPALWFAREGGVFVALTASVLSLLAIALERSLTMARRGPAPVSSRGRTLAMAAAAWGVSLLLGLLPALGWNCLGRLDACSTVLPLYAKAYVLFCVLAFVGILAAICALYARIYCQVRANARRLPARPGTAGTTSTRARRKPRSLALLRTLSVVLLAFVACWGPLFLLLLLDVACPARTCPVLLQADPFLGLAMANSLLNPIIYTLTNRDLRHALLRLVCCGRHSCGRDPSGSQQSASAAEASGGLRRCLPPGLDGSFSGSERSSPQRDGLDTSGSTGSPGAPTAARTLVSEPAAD
# EXPERIMENT_DESCRIPTION: hS1P5R GTPγS binding assay (Assay 4)
# Description: The hS1PR5 GTPγS binding assay was carried out at room temperature in 96-well non-binding surface assay plates. […] The radioactivity of the bound GTPγS was counted by reading the assay plate using a MicroBeta.
pEC50: −log10 of the molar value.
Parameter pEC50: see the listing below.

[
  {
    "COMPOUND": "CC(C)Oc1ccc(-c2nnc(-c3cc(F)c(OC[C@H](N)CO)cc3Cl)s2)cn1 [Entry 35]",
    "TESTED_SYSTEM": "UniProt:Q9H228",
    "pEC50": "5.55 to 6.60"
  },
  {
    "COMPOUND": "CC(C)Oc1ccc(-c2nnc(-c3cc(F)c(OC[C@H](N)CO)cc3Cl)s2)cc1F [Entry 42]",
    "TESTED_SYSTEM": "UniProt:Q9H228",
    "pEC50": "6.60 to 7.30"
  }
]

Query: Tell me the measured pEC50 of N[C@H](CO)COc1cc(Cl)c(-c2nnc(-c3cc(F)cc(Br)c3)s2)cc1F [Entry 24] , please.
Response: 5.55 to 6.60

These entries and their values trace back to patent US20100249071A1.
